# target-entity: ACR-23 (acetylcholine receptor like-23) (Caenorhabditis elegans, UniProt G5EG88)
# Construct: homo-pentamer; M3-M4 loop (residues Lys 386 to Gln 437) replaced with bRIL, C-terminal strep tag (cryo-EM); ACR-23 with C-terminal GFP in HEK293 cells (EC50)
# Sequence (G5EG88 20-545): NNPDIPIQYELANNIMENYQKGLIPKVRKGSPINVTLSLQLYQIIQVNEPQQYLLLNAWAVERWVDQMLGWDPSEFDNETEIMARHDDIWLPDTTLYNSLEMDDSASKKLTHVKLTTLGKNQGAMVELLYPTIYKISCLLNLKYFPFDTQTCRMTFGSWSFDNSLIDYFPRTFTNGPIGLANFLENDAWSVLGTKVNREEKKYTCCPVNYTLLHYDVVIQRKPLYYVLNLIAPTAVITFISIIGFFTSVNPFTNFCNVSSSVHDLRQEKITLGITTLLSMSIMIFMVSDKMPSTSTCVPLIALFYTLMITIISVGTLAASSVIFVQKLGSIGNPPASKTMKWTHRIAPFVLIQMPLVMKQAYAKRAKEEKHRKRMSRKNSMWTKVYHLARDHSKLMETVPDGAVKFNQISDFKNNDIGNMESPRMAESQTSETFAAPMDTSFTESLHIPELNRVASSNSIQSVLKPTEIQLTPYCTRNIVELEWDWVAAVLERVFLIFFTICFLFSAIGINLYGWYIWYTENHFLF
# method-description: cryo-EM structure ([…] Å); EC50 by whole-cell patch clamp in HEK293 cells
# Assay type: cell-based
measured-endpoint: EC50

compound-structure-string	result
C[N+](C)(C)CC(=O)O	~34.4 µM

----------
# target-entity: ACR-23 (acetylcholine receptor like-23) (Caenorhabditis elegans, UniProt G5EG88)
# Construct: homo-pentamer; M3-M4 loop (residues Lys 386 to Gln 437) replaced with bRIL, C-terminal strep tag (cryo-EM); ACR-23 with C-terminal GFP in HEK293 cells (EC50)
# method-description: cryo-EM structure ([…] Å, betaine co-bound); EC50 by whole-cell patch clamp in HEK293 cells
# Type: cell-based

compound	EC50 / nM
CC(C#N)(COc1cc(C#N)ccc1C(F)(F)F)NC(=O)c1ccc(SC(F)(F)F)cc1 (racemic)	2130
